Tested on: Saccharomyces cerevisiae
Assay: protein stability index of tFT-peptide fusion (C-terminal peptide) (PSI (0-1 scale)); higher = more stable (slower turnover)
Details: genetic background: wild type; temperature: 30 C
readout: protein stability index
Reply with just the number.

stdin: Form entry - test system: Saccharomyces cerevisiae; read-out: protein stability index; sequence: APRTRLCVHEIP;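 also: PSI is a weighted mean of sequencing reads over stability bins, variants kept only with over 10 reads, mCherry proximal and sfGFP distal, peptide attached via GGGS linker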
stdout: 0.686

stdin: Now this one: VVHGIGLIYTGG
stdout: 0.68

stdin: Also ASSSPAPYAPYT ?
stdout: 0.635

stdin: Continue with PPPPPHPRSPLS
stdout: 0.738

stdin: Here is the next sequence: LPPPRPLPRPCP
stdout: 0.748

stdin: Next record, please: VFLRSGCSGWGE
stdout: 0.827

stdin: And the next one, APRSPSLRSRHP ?
stdout: 0.743

stdin: Next sequence: SSFLAPFRFPLL
stdout: 0.675

stdin: Try this sequence next: RGRTLVVPAPDT
stdout: 0.673

stdin: Now the same for SVSRIFRTFSCY
stdout: 0.321
